System: melanoma (B 16)
Test: MTT cytotoxicity assay, B16
Assay type: cell-based, mouse
Settings: 72 h
Source text: Example 2 describes the in vitro cytotoxicity, which is indicative of the induction of cell death and/or inhibition of cellular proliferation of cancer cells, of the Au(III)-NHC complexes on cervical epithelioid carcinoma, hepatocellular carcinoma, leukemia, nasopharyngeal carcinoma, breast carcinoma, melanoma, and lung carcinoma. […]
measure: IC50 (µM)
Please state the figure in µM; there is no need to write the unit.

[
  {
    "compound": "CCCCCCCCn1cc[n+](C)[c]1[Au-]12[n]3ccnc3-c3cccc([n+]31)-c1ncc[n]12.O=S(=O)([O-])C(F)(F)F [Complex 3]",
    "IC50 / µM": 3.8
  },
  {
    "compound": "Cn1cc[n+](C)[c]1[Au-]12[n]3ccnc3-c3cccc([n+]31)-c1ncc[n]12.O=S(=O)([O-])C(F)(F)F [Complex 1]",
    "IC50 / µM": 30.6
  }
]

The record that follows has no IC50 shown yet.
Exam item: Which measured IC50 belongs to C[n+]1ccn(CCC[P+](c2ccccc2)(c2ccccc2)c2ccccc2)[c]1[Au-]12[n]3ccnc3-c3cccc([n+]31)-c1ncc[n]12.O=S(=O)([O-])C(F)(F)F.O=S(=O)([O-])C(F)(F)F [Complex 8] , tested on melanoma (B 16)?
Marked response: 36.8

---

system: lung carcinoma (NCI-H460); assay: MTT cytotoxicity assay, NCI-H460; format: cell-based, human; settings: 72 h
IC50 overview
Kindly answer with a numeric value in µM, unit omitted.

[
  {
    "structure.notation": "Cn1cc[n+](C)[c]1[Au-]12[n]3c(nc4ccccc43)-c3cccc([n+]31)-c1nc3ccccc3[n]12.O=S(=O)([O-])C(F)(F)F",
    "measure": "IC50",
    "reported.value": 11.2
  },
  {
    "structure.notation": "CCCCn1cc[n+](CCCC)[c]1[Au-]12[n]3c(nc4ccccc43)-c3cccc([n+]31)-c1nc3ccccc3[n]12.O=S(=O)([O-])C(F)(F)F",
    "measure": "IC50",
    "reported.value": 5.5
  },
  {
    "structure.notation": "CCCCCCCCn1cc[n+](C)[c]1[Au-]12[n]3ccnc3-c3cccc([n+]31)-c1ncc[n]12.O=S(=O)([O-])C(F)(F)F",
    "measure": "IC50",
    "reported.value": 17.3
  }
]

Exam item: Under lung carcinoma (NCI-H460): IC50 value of CCCCCCn1cc[n+](CCCCCC)[c]1[Au-]12[n]3c(nc4ccccc43)-c3cccc([n+]31)-c1nc3ccccc3[n]12.O=S(=O)([O-])C(F)(F)F ?
Marked response: 5

Exam item: // lookup IC50 | system=lung carcinoma (NCI-H460) | key= C[n+]1ccn(CCC[P+](c2ccccc2)(c2ccccc2)c2ccccc2)[c]1[Au-]12[n]3ccnc3-c3cccc([n+]31)-c1ncc[n]12.O=S(=O)([O-])C(F)(F)F.O=S(=O)([O-])C(F)(F)F
Marked response: 65.4

Exam item: # returns recorded IC50 (system: lung carcinoma (NCI-H460)) for Cn1cc[n+](C)[c]1[Au-]12[n]3ccnc3-c3cccc([n+]31)-c1ncc[n]12.O=S(=O)([O-])C(F)(F)F
Marked response: 55

Exam item: Field: IC50 (lung carcinoma (NCI-H460)). Entry: CCCCCCCCCCn1cc[n+](C)[c]1[Au-]12[n]3ccnc3-c3cccc([n+]31)-c1ncc[n]12.O=S(=O)([O-])C(F)(F)F
Marked response: 9.7

Exam item: Recall the recorded IC50 for CCCCn1cc[n+](CCCC)[c]1[Au-]12[n]3ccnc3-c3cccc([n+]31)-c1ncc[n]12.O=S(=O)([O-])C(F)(F)F with lung carcinoma (NCI-H460) and state it.
Marked response: 7.9

Exam item: Write down the reported IC50 of CCCCCCCCCCCCCCCCn1cc[n+](C)[c]1[Au-]12[n]3ccnc3-c3cccc([n+]31)-c1ncc[n]12.O=S(=O)([O-])C(F)(F)F , test system: lung carcinoma (NCI-H460).
Marked response: 1.4

Exam item: Form entry - test system: lung carcinoma (NCI-H460); read-out: IC50; compound: CCCCCCn1cc[n+](CCCCCC)[c]1[Au-]12[n]3ccnc3-c3cccc([n+]31)-c1ncc[n]12.O=S(=O)([O-])C(F)(F)F
Marked response: 34.6

---

system: breast cancer (MCF-7); test: MTT cytotoxicity assay, MCF-7; assay type: cell-based, human; conditions: 72 h
Let's look at some compounds and their measured pIC50.
Hey, just a heads up that pIC50 is the negative log base 10 of the concentration in molar.

Consider the worked cases shown below.
[
  {
    "compound": "CCCCn1cc[n+](CCCC)[c]1[Au-]12[n]3c(nc4ccccc43)-c3cccc([n+]31)-c1nc3ccccc3[n]12.O=S(=O)([O-])C(F)(F)F [Complex 10]",
    "measured.on": "breast cancer (MCF-7)",
    "pIC50": 5.06
  },
  {
    "compound": "Cn1cc[n+](C)[c]1[Au-]12[n]3c(nc4ccccc43)-c3cccc([n+]31)-c1nc3ccccc3[n]12.O=S(=O)([O-])C(F)(F)F [Complex 9]",
    "measured.on": "breast cancer (MCF-7)",
    "pIC50": 4.92
  },
  {
    "compound": "CCCCCCCCCCn1cc[n+](C)[c]1[Au-]12[n]3ccnc3-c3cccc([n+]31)-c1ncc[n]12.O=S(=O)([O-])C(F)(F)F [Complex 4]",
    "measured.on": "breast cancer (MCF-7)",
    "pIC50": 5.19
  }
]

Exam item: Notebook entry, breast cancer (MCF-7) assay: pIC50 of CCCCn1cc[n+](CCCC)[c]1[Au-]12[n]3ccnc3-c3cccc([n+]31)-c1ncc[n]12.O=S(=O)([O-])C(F)(F)F [Complex 6] = ?
Marked response: 4.89

---

# pIC50 values compiled below
system: melanoma (B 16); test: MTT cytotoxicity assay, B16; assay type: cell-based, mouse; settings: 72 h
Note on pIC50: it is the negative log10 of concentration, concentration in mol/L.

Below: 6 compounds and their reported pIC50.
[
  {
    "structure.notation": "CCCCCCCCCCn1cc[n+](C)[c]1[Au-]12[n]3ccnc3-c3cccc([n+]31)-c1ncc[n]12.O=S(=O)([O-])C(F)(F)F",
    "measure": "pIC50",
    "reported.value": 5.80
  },
  {
    "structure.notation": "CCCCn1cc[n+](CCCC)[c]1[Au-]12[n]3ccnc3-c3cccc([n+]31)-c1ncc[n]12.O=S(=O)([O-])C(F)(F)F",
    "measure": "pIC50",
    "reported.value": 5.08
  },
  {
    "structure.notation": "Cn1cc[n+](C)[c]1[Au-]12[n]3c(nc4ccccc43)-c3cccc([n+]31)-c1nc3ccccc3[n]12.O=S(=O)([O-])C(F)(F)F",
    "measure": "pIC50",
    "reported.value": 4.91
  },
  {
    "structure.notation": "CCCCn1cc[n+](CCCC)[c]1[Au-]12[n]3c(nc4ccccc43)-c3cccc([n+]31)-c1nc3ccccc3[n]12.O=S(=O)([O-])C(F)(F)F",
    "measure": "pIC50",
    "reported.value": 5.28
  },
  {
    "structure.notation": "CCCCCCCCCCCCCCCCn1cc[n+](C)[c]1[Au-]12[n]3ccnc3-c3cccc([n+]31)-c1ncc[n]12.O=S(=O)([O-])C(F)(F)F",
    "measure": "pIC50",
    "reported.value": 5.66
  },
  {
    "structure.notation": "CCCCCCn1cc[n+](CCCCCC)[c]1[Au-]12[n]3ccnc3-c3cccc([n+]31)-c1ncc[n]12.O=S(=O)([O-])C(F)(F)F",
    "measure": "pIC50",
    "reported.value": 5.11
  }
]

Exam item: Please look up its pIC50: CCCCCCn1cc[n+](CCCCCC)[c]1[Au-]12[n]3c(nc4ccccc43)-c3cccc([n+]31)-c1nc3ccccc3[n]12.O=S(=O)([O-])C(F)(F)F
Marked response: 5.26

---

tested on: nasopharyngeal carcinoma (SUNE1); test: MTT cytotoxicity assay, SUNE1; assay type: cell-based, human; details: 72 h
pIC50 reference
Here pIC50 is given on a logarithmic scale as minus log10 of the concentration in mol/L.

Example results:
[
  {
    "structure.notation": "CCCCCCCCCCn1cc[n+](C)[c]1[Au-]12[n]3ccnc3-c3cccc([n+]31)-c1ncc[n]12.O=S(=O)([O-])C(F)(F)F",
    "pIC50": 5.26
  },
  {
    "structure.notation": "Cn1cc[n+](C)[c]1[Au-]12[n]3ccnc3-c3cccc([n+]31)-c1ncc[n]12.O=S(=O)([O-])C(F)(F)F",
    "pIC50": 4.54
  },
  {
    "structure.notation": "CCCCCCCCCCCCCCCCn1cc[n+](C)[c]1[Au-]12[n]3ccnc3-c3cccc([n+]31)-c1ncc[n]12.O=S(=O)([O-])C(F)(F)F",
    "pIC50": 4.54
  }
]

Exam item: pIC50 lookup needed for CCCCCCn1cc[n+](CCCCCC)[c]1[Au-]12[n]3c(nc4ccccc43)-c3cccc([n+]31)-c1nc3ccccc3[n]12.O=S(=O)([O-])C(F)(F)F , thanks.
Marked response: 5.51

Exam item: Returns the measured pIC50 for the input compound. Input: CCCCCCCCn1cc[n+](C)[c]1[Au-]12[n]3ccnc3-c3cccc([n+]31)-c1ncc[n]12.O=S(=O)([O-])C(F)(F)F
Marked response: 5.05

Exam item: Query: pIC50; subject: Cn1cc[n+](C)[c]1[Au-]12[n]3c(nc4ccccc43)-c3cccc([n+]31)-c1nc3ccccc3[n]12.O=S(=O)([O-])C(F)(F)F
Marked response: 4.95

Exam item: Field request: pIC50 | item: CCCCn1cc[n+](CCCC)[c]1[Au-]12[n]3ccnc3-c3cccc([n+]31)-c1ncc[n]12.O=S(=O)([O-])C(F)(F)F
Marked response: 5.00

Exam item: What does the data say about its pIC50? Entry: CCCCCCn1cc[n+](CCCCCC)[c]1[Au-]12[n]3ccnc3-c3cccc([n+]31)-c1ncc[n]12.O=S(=O)([O-])C(F)(F)F
Marked response: 4.43

Exam item: # pIC50 lookup, item C[n+]1ccn(CCC[P+](c2ccccc2)(c2ccccc2)c2ccccc2)[c]1[Au-]12[n]3ccnc3-c3cccc([n+]31)-c1ncc[n]12.O=S(=O)([O-])C(F)(F)F.O=S(=O)([O-])C(F)(F)F
Marked response: 4.33

Exam item: Consider the compound CCCCn1cc[n+](CCCC)[c]1[Au-]12[n]3c(nc4ccccc43)-c3cccc([n+]31)-c1nc3ccccc3[n]12.O=S(=O)([O-])C(F)(F)F and give its measured pIC50.
Marked response: 5.28
